Data origin, for the record: patent US20050020492A1

Below, each entry is listed with its recorded EC50, aequorin bioluminescence.
tested system: human MCH-2R (human, UniProt Q969V1 1-340)
Sequence (Q969V1 whole entry): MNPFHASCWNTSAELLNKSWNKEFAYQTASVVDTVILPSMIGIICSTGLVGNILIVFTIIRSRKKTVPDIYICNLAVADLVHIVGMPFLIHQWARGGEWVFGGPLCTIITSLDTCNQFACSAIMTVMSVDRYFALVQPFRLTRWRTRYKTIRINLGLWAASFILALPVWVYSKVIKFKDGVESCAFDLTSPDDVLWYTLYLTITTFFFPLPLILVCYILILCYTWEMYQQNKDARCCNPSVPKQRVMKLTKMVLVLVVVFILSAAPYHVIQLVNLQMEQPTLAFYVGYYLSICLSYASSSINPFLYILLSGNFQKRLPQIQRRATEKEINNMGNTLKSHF
protocol description: cell-based or functional assay
Positions of bridges follow the written chain, without caps; N, C: chain ends. No end group written: not given here.

- binder: "DFDMLRCMLGRVYRPCWQV (disulfide 7-16 (inferred)) [human MCH]"
  measured property: "EC50, aequorin bioluminescence"
  observed measurement: "30.7 nM"

// next item, EC50, aequorin bioluminescence requested
EC50, aequorin bioluminescence measured on XCMLQRVYRPC (HELM PEPTIDE1{[ac].[dR].C.M.L.Q.R.V.Y.R.P.C.[am]}$PEPTIDE1,PEPTIDE1,3:R3-12:R3$$$V2.0; SMILES CSCC[C@@H]1NC(=O)[C@@H](NC(=O)[C@@H](CCCNC(=N)N)NC(C)=O)CSSC[C@@H](C(N)=O)NC(=O)[C@@H]2CCCN2C(=O)[C@H](CCCNC(=N)N)NC(=O)[C@H](Cc2ccc(O)cc2)NC(=O)[C@H](C(C)C)NC(=O)[C@H](CCCNC(=N)N)NC(=O)[C@H](CCC(N)=O)NC(=O)[C@H](CC(C)C)NC1=O) [SEQ. ID. NO. 30 (D-Arg^6, Gln^10 analog of Ac-hMCH(6-16)-NH2)] = > 10000 nM
